target: Human-recombinant-S-Adenosyl-L-Homocysteine Hydrolase (Homo sapiens); assay: Measurement of enzyme inhibitory activity (hydrolysis of S-Adenosyl-L-Homocysteine, HPLC); settings: S-Adenosyl-L-Homocysteine 10 μM, pH 7.2, 37° C., 15 min
Sequence (P23526 whole entry): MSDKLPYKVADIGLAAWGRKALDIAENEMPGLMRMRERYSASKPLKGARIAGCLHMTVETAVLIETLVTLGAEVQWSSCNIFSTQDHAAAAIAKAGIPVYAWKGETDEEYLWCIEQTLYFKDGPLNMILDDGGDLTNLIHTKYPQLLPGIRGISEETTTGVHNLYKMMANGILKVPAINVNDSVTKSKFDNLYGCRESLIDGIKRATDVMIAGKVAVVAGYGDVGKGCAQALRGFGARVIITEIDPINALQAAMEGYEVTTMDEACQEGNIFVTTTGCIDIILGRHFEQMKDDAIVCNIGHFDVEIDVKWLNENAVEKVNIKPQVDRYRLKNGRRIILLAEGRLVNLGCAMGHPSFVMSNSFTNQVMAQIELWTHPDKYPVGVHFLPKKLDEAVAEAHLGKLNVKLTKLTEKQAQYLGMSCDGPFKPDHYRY
Counter-ions that a name gives are not always drawn.
Entries whose IC50 is below 0.05 µM take Met; entries at or above 0.05 µM take Not met.

Take a look at these entries with their results.
> print(dat)
                                   compound      cat
1  CCNCCNC(=O)CN(CC(=O)N(C)N1Cc2ccc(F)cc2C1)c1cc(-c2nc(C)no2)ccc1C      Met
2  Cc1ccc(C#N)cc1N(CC(=O)NCCNC(C)C)CC(=O)N(C)N1Cc2ccccc2C1 [Example 1, dihydrochloride]  Not met
3  Cc1cc2onc(C)c2cc1N(CC(=O)NC[C@@H]1CCCN1)CC(=O)N(C)N1Cc2ccccc2C1 [Example 328, dihydrochloride]  Not met

In plain terms, does Cc1noc(-c2ccc(C)c(N(CC(=O)NCCNC(C)C)CC(=O)N(C)N3Cc4ccccc4C3)c2)n1 come in under 0.05 µM for IC50?
Met

In plain terms, does CCNCCNC(=O)CN(CC(=O)N(C)N1Cc2ccc(F)cc2C1)c1cc2c(cc1C)CCC2=O come in under 0.05 µM for IC50?
Met

In plain terms, does CCNCCNC(=O)CN(CC(=O)N(C)N1Cc2ccccc2C1)c1ccc(-c2noc(C(F)(F)F)n2)cc1C [Example 289, dihydrochloride] come in under 0.05 µM for IC50?
Not met

In plain terms, does CCNCCNC(=O)CN(CC(=O)N(C)N1Cc2ccccc2C1)c1ccc(C(C)=O)cc1C come in under 0.05 µM for IC50?
Met

In plain terms, does Cc1cc2onc(C)c2cc1N(CC(=O)NCCNC(C)C)CC(=O)N(C)N1Cc2ccccc2C1 come in under 0.05 µM for IC50?
Met

In plain terms, does CCNCCNC(=O)CN(CC(=O)N(C)N1Cc2ccccc2C1)c1cc2cnn(C)c2cc1C [Example 241, hydrochloride] come in under 0.05 µM for IC50?
Met

In plain terms, does CCNCCNC(=O)CN(CC(=O)N(C)N1Cc2ccccc2C1)c1cc(-c2nn(CC)c(=O)o2)ccc1C come in under 0.05 µM for IC50?
Met

In plain terms, does CCNCCNC(=O)CN(CC(=O)N(C)N1Cc2ccc(F)cc2C1)c1ccc(-c2nc(C)no2)cc1C come in under 0.05 µM for IC50?
Met

In plain terms, does Cc1nc(-c2ccc(C)c(N(CC(=O)NCCNC(C)C)CC(=O)N(C)N3Cc4ccc(F)cc4C3)c2)no1 come in under 0.05 µM for IC50?
Not met

In plain terms, does Cc1nc(-c2ccc(C)c(N(CC(=O)NCCNC(C)C)CC(=O)N(C)N3Cc4ccccc4C3)c2)no1 come in under 0.05 µM for IC50?
Met

In plain terms, does CCNCCNC(=O)CN(CC(=O)N(C)N1Cc2ccccc2C1)c1cc(-c2nn(C)c(=O)o2)ccc1C come in under 0.05 µM for IC50?
Not met

In plain terms, does CCNCCNC(=O)CN(CC(=O)N(C)N1Cc2ccccc2C1)c1ccc(-c2noc(C)n2)cc1C come in under 0.05 µM for IC50?
Met

In plain terms, does CCNCCNC(=O)CN(CC(=O)N(C)N1Cc2ccc(F)cc2C1)c1cc(-c2noc(C)n2)ccc1C.Cl come in under 0.05 µM for IC50?
Met

In plain terms, does CCNCCNC(=O)CN(CC(=O)N(C)N1Cc2ccc(F)cc2C1)c1cc2c(cc1C)c(CC)nn2CC(F)F [Example 279, hydrochloride] come in under 0.05 µM for IC50?
Not met

In plain terms, does Cc1ccc(-c2nn(C)c(=O)o2)cc1N(CC(=O)NCCNC(C)C)CC(=O)N(C)N1Cc2ccccc2C1 come in under 0.05 µM for IC50?
Met

In plain terms, does CCNCCNC(=O)CN(CC(=O)N(C)N1Cc2ccccc2C1)c1cc(-c2nc(C)no2)ccc1C come in under 0.05 µM for IC50?
Met
